// provenance: paper PMC8623273

# test_system: eukaryotic translation initiation factor 4E (eIF4E) (Mus musculus)
# Sequence (P63073 whole entry): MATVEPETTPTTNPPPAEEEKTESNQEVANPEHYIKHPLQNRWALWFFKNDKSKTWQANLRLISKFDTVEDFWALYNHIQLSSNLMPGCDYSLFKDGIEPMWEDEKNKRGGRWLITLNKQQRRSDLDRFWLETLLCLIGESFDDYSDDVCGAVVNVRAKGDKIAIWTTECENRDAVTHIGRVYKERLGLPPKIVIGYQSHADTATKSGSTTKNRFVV
# assay_explanation: pyrene-probe fluorescent competitive-binding assay (PyFLINT-B) for cap analog-eIF4E
# run_parameters: Table S2
Label 1.0 when EC50 is strictly below 6 µM; otherwise label 0.0.

smiles_string: Nc1nc(O)c2c(n1)n([C@@H]1O[C@H](COP(=O)(O)OP(=O)([O-])OP(=O)(O)OC[C@H]3O[C@@H](n4cnc5c(=O)[nH]c(N)nc54)[C@H](O)[C@@H]3O)[C@@H](O)[C@H]1O)c[n+]2Cc1ccc([N+](=O)[O-])cc1
label: 1.0
--
smiles_string: Nc1nc(O)c2c(n1)n([C@@H]1O[C@H](COP(=O)(O)OP(=O)([O-])OP(=O)(O)OC[C@H]3O[C@@H](n4cnc5c(=O)[nH]c(N)nc54)[C@H](O)[C@@H]3O)[C@@H](O)[C@H]1O)c[n+]2Cc1ccc(Br)cc1
label: 1.0
--
smiles_string: CC(C)c1ccc(C[n+]2cn([C@@H]3O[C@H](COP(=O)(O)OP(=O)([O-])OP(=O)(O)OC[C@H]4O[C@@H](n5cnc6c(=O)[nH]c(N)nc65)[C@H](O)[C@@H]4O)[C@@H](O)[C@H]3O)c3nc(N)nc(O)c32)cc1
label: 0.0
--
smiles_string: Nc1nc(O)c2c(n1)n([C@@H]1O[C@H](COP(=O)(O)OP(=O)([O-])OP(=O)(O)OC[C@H]3O[C@@H](n4cnc5c(=O)[nH]c(N)nc54)[C@H](O)[C@@H]3O)[C@@H](O)[C@H]1O)c[n+]2Cc1ccc(F)cc1F
label: 0.0
--
smiles_string: CO[C@@H]1[C@H](O)[C@@H](COP(=O)(O)OP(=O)([O-])OP(=O)(O)OC[C@H]2O[C@@H](n3cnc4c(=O)[nH]c(N)nc43)[C@H](O)[C@@H]2O)O[C@H]1n1c[n+](Cc2ccc(Cl)cc2)c2c(O)nc(N)nc21
label: 1.0
--
smiles_string: Cc1cc(C)cc(C[n+]2cn([C@@H]3O[C@H](COP(=O)(O)OP(=O)([O-])OP(=O)(O)OC[C@H]4O[C@@H](n5cnc6c(=O)[nH]c(N)nc65)[C@H](O)[C@@H]4O)[C@@H](O)[C@H]3O)c3nc(N)nc(O)c32)c1
label: 0.0
--
smiles_string: Nc1nc(O)c2c(n1)n([C@@H]1O[C@H](COP(=O)(O)OP(=O)([O-])OP(=O)(O)OC[C@H]3O[C@@H](n4cnc5c(=O)[nH]c(N)nc54)[C@H](O)[C@@H]3O)[C@@H](O)[C@H]1O)c[n+]2Cc1ccc(Cl)cc1
label: 1.0
--
smiles_string: Nc1nc(O)c2c(n1)n([C@@H]1O[C@H](COP(=O)(O)OP(=O)([O-])OP(=O)(O)OC[C@H]3O[C@@H](n4cnc5c(=O)[nH]c(N)nc54)[C@H](O)[C@@H]3O)[C@@H](O)[C@H]1O)c[n+]2Cc1ccc(F)c(F)c1
label: 1.0
--
smiles_string: CO[C@@H]1[C@H](O)[C@@H](COP(=O)(O)OP(=O)([O-])OP(=O)(O)OC[C@H]2O[C@@H](n3cnc4c(=O)[nH]c(N)nc43)[C@H](O)[C@@H]2O)O[C@H]1n1c[n+](Cc2ccccc2)c2c(O)nc(N)nc21
label: 1.0
